Apo-One Apoptosis Assay, 25 ng/ml listing for selected binders.
# study target: human CD3 (human) (UniProt P07766)
# Sequence (P07766 23-207): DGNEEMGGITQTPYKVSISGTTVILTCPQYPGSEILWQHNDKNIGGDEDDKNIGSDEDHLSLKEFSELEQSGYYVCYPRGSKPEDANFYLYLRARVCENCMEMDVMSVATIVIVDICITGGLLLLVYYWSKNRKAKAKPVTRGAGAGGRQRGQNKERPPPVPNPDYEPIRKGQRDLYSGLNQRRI
# protocol description: cell-based or functional assay
Note: the reply should be a number with no unit written.

Examples with answers:
anti-CD3 HuFR antibody 2 (heavy chain BD20613, light chain BD21131) (antibody, part only; not given: few VH framework 4 residues, V domains shown, part only) VH, part: QVQLQESGPGLVKPSETLSLTCAVSGYTFTRYTMHWVRQAPGKGLEWVGYINPSRGYTNYNQKFKDRFTISRDDSKNTAYLQMNSLKTEDTAVYYCTRYYDDHYCLDYVTVSSASTKGPS VL: DIQMTQSPSTLSASVGDRVTITCSASSSVSYMNWYQQKPGQAPRLLIYDTSKLASGVPDRFSGSGSGTDFTLKISRVEAEDVGVYYCQQWSSNPFTFGQGTKVEIKFGQGTKVEIKR = 1440
anti-CD3 HuFR antibody 8 (heavy chain BD20611, light chain BD21137) (antibody, part only; not given: few VH framework 4 residues, V domains shown, part only) VH, part: QVQLVESGAEVKKPGASVKVSCKASGYTFTRYTMHWVRQAPGKGLEWMGYINPSRGYTNYNQKFKDRLTISKDTSKNQVVLTMTNMDPVDTATYYCARYYDDHYCLDYVTVSSASTKGPS VL: DIQMTQSPSTLSASVGDRVTITCSASSSVSYMNWYQQKPGQPPKLLIYDTSKLASGVPSRFSGSGSGTDFTFTISSLQPEDIATYYCQQWSSNPFTFGQGTKVEIKFGQGTKVEIKR = 1630

# context switch: different binder, same Apo-One Apoptosis Assay, 25 ng/ml
# input Quote Apo-One Apoptosis Assay, 25 ng/ml reported for anti-CD3 HuFR antibody 1 (heavy chain BD20610, light chain BD21130) (antibody, part only; not given: Heavy stretch before framework 4, V domains shown, part only) VH, part: QVQLVESGAEVKKPGASVKVSCKASGYTFTRYTMHWVRQAPGKGLEWMGYINPSRGYTNYNQKFKDRVTISVDTSKNQFSLKLSSVTAADTAVYYCARYYDDHYCLDYVTVSSASTKGPS VL: DIQMTQSPSSLSASVGDRVTITCSASSSVSYMNWYQQKPGQPPKLLIYDTSKLASGVPDRFSGSGSGTDFTLKISRVEAEDVGVYYCQQWSSNPFTFGQGTKVEIKFGQGTKVEIKR please.
# output 1220
